Reported z-score by item:
# RUN_DESCRIPTION: change in splice reporter luminescence, either direction, cell-based, HEK293, spliceosome inhibition project, primary screen (AID 1101);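 further: HEK293 cells carrying a splicing-competent luciferase reporter gene; test concentration not given here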
# TEST_SETTINGS: HEK293 splicing luciferase reporter, 24 h, higher = more signal, called active from +8 up or from −8 down
Answer field: number only, no words.

{"MOLECULE": "O=C1C2C=CC(C(O)c3c(F)cccc3Cl)N(Nc3ccc([N+](=O)[O-])cc3)C2C(=O)N1c1ccccc1 (stereo not drawn)", "ENDPOINT": "z-score", "TEST_RESULT": -0.108}
{"MOLECULE": "C=C(CCCC)/C(=C/C[C@H](OC(=O)c1ccncc1)c1cccc(OCCO)c1)c1cnc2ccccc2c1", "ENDPOINT": "z-score", "TEST_RESULT": 0.223}
{"MOLECULE": "O=C1C[C@@](C(=O)O)(c2ccc([N+](=O)[O-])cc2)[C@@H](c2ccc(CO)cc2)N1C1CCCCC1", "ENDPOINT": "z-score", "TEST_RESULT": 0.185}
{"MOLECULE": "CC(C)NC(=O)[C@@H]1c2ccccc2C(=O)N(Cc2ccccc2C(F)(F)F)[C@H]1c1ccc(CO)cc1", "ENDPOINT": "z-score", "TEST_RESULT": 0.438}
{"MOLECULE": "C=CCC(OC(C)=O)[C@@H]1[C@@H](N(Cc2ccc(-c3cccc(C(F)(F)F)c3)o2)C(=O)c2ccc(-c3ccccc3)cc2)c2cc(OCCCO)ccc2N1C(=O)c1ccc2ccccc2c1 (stereo partly drawn)", "ENDPOINT": "z-score", "TEST_RESULT": 0.697}

Ask: Request the reported z-score associated with `CC(C)C[C@@H]1NC(=O)[C@@H]2C[C@H](C(=O)NCCCCCCNC(=O)CS)[C@H](c3cccc(OCCO)c3)N2C1=O`
Result: -0.356

Ask: Request the reported z-score associated with `COC(=O)[C@@]1(Cc2ccc(OC)cc2)[C@H]2c3cc(C(=O)N4CCCC4)n(Cc4ccc(C(F)(F)F)nc4)c3C[C@H]2CN1C(=O)c1ccccc1`
Result: -4.53

Ask: Request the reported z-score associated with `COC(=O)[C@H](Cc1ccccc1)N1CC2=CCCC=C[C@@H]2[C@H]1[C@H](O)Cc1ccccc1`
Result: -0.477

Ask: Request the reported z-score associated with `Cc1ccc(N2C(=O)c3ccccc3[C@](C)(C(=O)NCCCN(C)C)[C@@H]2c2ccc(CO)cc2)nc1`
Result: 0.055

Ask: Request the reported z-score associated with `COC(=O)C(CC#Cc1ccc2c(c1)[C@]1(C(=O)N2)[C@H](c2ccc(OCCO)cc2)N2[C@H](c3ccccc3)[C@H](c3ccccc3)OC(=O)[C@H]2[C@@H]1C(=O)N1CCCCCCC1)C(=O)OC`
Result: 0.191

Ask: Request the reported z-score associated with `NCCCCCCNC(=O)[C@@H]1C[C@@H]2C(=O)N3CCC[C@H]3C(=O)N2[C@@H]1c1cccc(OCCO)c1`
Result: -1.42

Ask: Request the reported z-score associated with `C=C1C(=O)C=C2CN(C(=O)c3ccccc3)[C@@](Cc3ccc(OC)cc3)(C(=O)OC)[C@@H]12`
Result: -2.15

Ask: Request the reported z-score associated with CC(C)C[C@@H]1NC(=O)[C@@]23C(=O)N[C@@H](Cc4ccccc4)C2[C@H](C)[C@@]2(C)O[C@H]2C3/C=C/C/C=C\CNC(=O)CNC1=O (stereo partly drawn)
Result: 0.103

###

# RUN_DESCRIPTION: blockers of DNA damage checkpoint Chk1 activation – imaging, HeLa, hydroxyurea, phospho-Chk1 nuclear intensity, primary screen (AID 1187); further: test concentration not given here
# TEST_SETTINGS: hydroxyurea-induced phospho-Chk1 immunofluorescence imaging, higher = more signal
ENDPOINT: z-score
Answer field: number only, no words.

{"MOLECULE": "C=CCNC(=O)[C@H]1[C@@H]2C(=O)O[C@@H](c3ccccc3)[C@@H](c3ccccc3)N2[C@@H](c2ccccc2OCCO)[C@]12C(=O)N(C(=O)OCCOC)c1ccc(C#Cc3ccc(OC)cc3)cc12", "z-score": 0.539}

Ask: Request the reported z-score associated with `COc1ccc([Si](C)(C)[C@H]2[C@H](CC(=O)N3Cc4ccccc4C[C@H]3CO)O[C@@]3(C(=O)N(c4ccccc4)c4ccccc43)[C@@H]2C)cc1`
Result: -0.786

Ask: Request the reported z-score associated with C=CCC(OC(C)=O)[C@@H]1[C@@H](N(Cc2cc3ccccc3o2)C(=O)c2cccc3ccccc23)c2cc(OCCCO)ccc2N1C(=O)c1ccc2ccccc2n1 (stereo partly drawn)
Result: 0.0983

###

Reported composite z-score by item:
# TEST_SYSTEM: Neurogenic locus notch homolog protein 2 (Homo sapiens)
# RUN_DESCRIPTION: small molecules binding Notch2 protein – biochemical, small-molecule microarray, 635 nm fluorescence, stem cell growth factors, primary screen (AID 1073)
# TEST_SETTINGS: higher = more signal
Answer field: number only, no words.

Ask: Request the reported composite z-score associated with `COCC(=C=CC[C@H](O)c1ccccc1OCCO)C[C@H](O)COCc1ccccc1`
Result: 0.41

###

# TEST_SYSTEM: Albumin (Bos taurus) (UniProt P02769)
# Sequence (P02769 whole entry, looked up): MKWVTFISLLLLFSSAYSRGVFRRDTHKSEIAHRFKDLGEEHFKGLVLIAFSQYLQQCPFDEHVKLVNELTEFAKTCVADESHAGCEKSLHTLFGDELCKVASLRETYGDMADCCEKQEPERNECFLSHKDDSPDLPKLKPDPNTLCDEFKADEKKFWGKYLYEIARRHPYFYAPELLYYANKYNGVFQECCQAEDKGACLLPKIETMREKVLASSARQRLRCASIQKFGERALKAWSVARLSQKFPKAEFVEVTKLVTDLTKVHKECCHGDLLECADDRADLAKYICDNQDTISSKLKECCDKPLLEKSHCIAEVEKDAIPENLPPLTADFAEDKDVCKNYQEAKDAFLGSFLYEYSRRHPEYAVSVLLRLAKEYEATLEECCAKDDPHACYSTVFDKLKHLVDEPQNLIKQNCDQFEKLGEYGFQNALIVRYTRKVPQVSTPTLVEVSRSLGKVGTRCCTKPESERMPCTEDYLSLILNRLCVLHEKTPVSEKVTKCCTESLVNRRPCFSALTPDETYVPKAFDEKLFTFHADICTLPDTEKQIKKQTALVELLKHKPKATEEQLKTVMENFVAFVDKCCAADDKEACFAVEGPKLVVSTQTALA
# RUN_DESCRIPTION: compounds binding labelled BSA control protein – biochemical, small-molecule microarray, Alexa647 label, 635/667 nm fluorescence, artefact control for SMM control protein annotation, profiling panel (AID 1118);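 further: score merges 667 nm emission intensity and signal-to-noise per printed compound spot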
# TEST_SETTINGS: BSA-A647 binding, fluorescence 635 nm, higher = more signal
// not met strictly below 0.6 in composite z-score; met otherwise

Consider the worked cases shown below.
{"MOLECULE": "O=C(NCc1ccccc1)[C@@H]1c2ccccc2C(=O)N(Cc2ccc(OC(F)(F)F)cc2)[C@H]1c1ccc(CO)cc1", "ASSIGNED_LABEL": "not met"}
{"MOLECULE": "[N-]=[N+]=Nc1ccccc1C[C@@]1(C(=O)NCC(O)CO)N=C(c2ccc(OCCCO)cc2)O[C@@H]1c1ccccc1 (stereo partly specified)", "ASSIGNED_LABEL": "not met"}
{"MOLECULE": "COc1ccc(C(=O)Nc2cccc(CN3C(=O)[C@]4(O[C@H](CC(=O)N5Cc6ccccc6C[C@H]5CO)[C@@H]([Si](C)(C)c5ccc(OC)cc5)[C@@H]4C)c4ccccc43)c2)cc1", "ASSIGNED_LABEL": "not met"}
{"MOLECULE": "CC(C)(C)N1CC=CC23O[C@@H]4/C=C\\CCCOC(=O)C4[C@H]2C(=O)N(CCCO)[C@@H]3C1=O (stereo partly specified)", "ASSIGNED_LABEL": "met"}
{"MOLECULE": "COCCOC(=O)N1C(=O)[C@@]2(c3cc(C#CCC(C(=O)OC)C(=O)OC)ccc31)[C@H](C(=O)Nc1nc3ccccc3s1)[C@H]1C(=O)O[C@H](c3ccccc3)[C@H](c3ccccc3)N1[C@@H]2c1ccc(O)cc1", "ASSIGNED_LABEL": "not met"}

Please turn your attention to the following entry.
Ask: Assess whether reported composite z-score for `CCCN1C(=O)[C@]2(CCC(=O)OC(C)(C)C)N=C(c3ccc(OCCCO)cc3)O[C@@H]2c2ccccc21` sits at 0.6 or higher.
Result: not met

###

Reported composite z-score by item:
# RUN_DESCRIPTION: probe aCHRDL2 binding to arrayed compounds – biochemical, biotinylated probe, 635/667 nm fluorescence, primary screen (AID 1100)
# TEST_SETTINGS: small-molecule microarray, higher = more signal

A selection of reference data follows.
{"SMILES_REPR": "C=CCNC(=O)[C@@H]1[C@H]2C(=O)O[C@H](c3ccccc3)[C@H](c3ccccc3)N2[C@H](c2ccc(OCCO)cc2)[C@@]12C(=O)Nc1ccc(C#CC3(O)CCCCCC3)cc12", "ENDPOINT": "composite z-score", "TEST_RESULT": 0.65}
{"SMILES_REPR": "C=CCN1C(=O)[C@@]2(O[C@@H](CCn3cc([C@H](O)c4ccccc4)nn3)[C@H]([Si](C)(C)c3ccc(OC)cc3)[C@H]2C)c2cc(N3C(=O)c4cccc5cccc3c45)ccc21", "ENDPOINT": "composite z-score", "TEST_RESULT": 0.401}

Ask: Request the reported composite z-score associated with `CC(C)C[C@@H]1NC(=O)[C@@H]2C[C@H](C(=O)NCCCCCCNC(=O)CS)[C@H](c3cccc(OCCO)c3)N2C1=O`
Result: 0.237

###

# TEST_SYSTEM: Fibroblast growth factor 2 (Homo sapiens)
# RUN_DESCRIPTION: basic fibroblast growth factor binding to printed compounds – biochemical, small-molecule microarray, 635/667 nm fluorescence, primary screen (AID 1133)
# TEST_SETTINGS: FGF2, fluorescence 635/667, higher = more signal
Reported composite z-score by item:
Answer field: number only, no words.

A selection of reference data follows.
{"COMPOUND": "O=C1c2ccccc2[C@@]2(Cc3ccccc3N(Cc3ccccc3)C2=O)[C@H](c2ccc(CO)cc2)N1Cc1ccccc1Cl", "TEST_RESULT": -0.395}
{"COMPOUND": "CCOc1cc(C(O)C2C=CC3C(=O)N(c4ccccc4)C(=O)C3N2Nc2ccccc2F)ccc1O (configuration not stated)", "TEST_RESULT": -0.107}
{"COMPOUND": "O=C(O)[C@H](Cc1ccccc1)n1cc(C2(O)CCCCC2)nn1", "TEST_RESULT": 0.278}
{"COMPOUND": "C=CCNC(=O)[C@H]1[C@@H]2C(=O)O[C@@H](c3ccccc3)[C@@H](c3ccccc3)N2[C@@H](c2ccccc2OCCO)[C@]12C(=O)N(C(=O)OCCOC)c1ccc(C#Cc3ccc(OC)cc3)cc12", "TEST_RESULT": 0.235}
{"COMPOUND": "CCCCCCc1nc(-c2ccc(-c3ccc(Cl)c(Cl)c3)o2)cc2c1[Si](C(C)C)(C(C)C)OC2", "TEST_RESULT": -0.985}
{"COMPOUND": "CC[C@@H]1C=C(C(=O)O)[C@H](c2ccc(OC)cc2)N1S(=O)(=O)c1ccc(C)cc1", "TEST_RESULT": -0.477}
{"COMPOUND": "CC(C)C[C@@H]1NC(=O)[C@@]23C(=O)N[C@@H](Cc4ccccc4)C2[C@H](C)[C@@]2(C)O[C@H]2C3/C=C/C/C=C\\CNC(=O)CNC1=O (some centres not stated)", "TEST_RESULT": 0.766}
{"COMPOUND": "CCOC(=O)C[C@H]1[C@H](OC(=O)c2ccccc2-c2ccccc2)[C@@H](NC(=O)c2ccc3ccccc3c2)c2cc(OCCCO)ccc2N1C(=O)Cc1ccc(OC)cc1", "TEST_RESULT": -0.0445}

Ask: Request the reported composite z-score associated with CC(C)(C)N1CC=CC23O[C@@H]4C=CCCOC(=O)C4[C@H]2C(=O)N(CCCCCCO)[C@@H]3C1=O (some centres not stated)
Result: -1.16

Ask: Request the reported composite z-score associated with `COc1ccc(C(=O)Nc2cccc(CN3C(=O)[C@]4(O[C@H](CC(=O)N5Cc6ccccc6C[C@H]5CO)[C@@H]([Si](C)(C)c5ccc(OC)cc5)[C@@H]4C)c4ccccc43)c2)cc1`
Result: 1.7

Ask: Request the reported composite z-score associated with NC(=O)N1C(=O)C2C(C1=O)C1C=C(CCCO)C2C(c2ccc(CN3CCCC3)cc2)N1Cc1sc2ccccc2c1Cl (configuration not stated)
Result: -0.145

Ask: Request the reported composite z-score associated with CCCCC(O)C1C=CC2C(=O)N(c3ccccc3)C(=O)C2N1Nc1ccc([N+](=O)[O-])cc1 (configuration not stated)
Result: -0.458

Data origin, for the record: PubChem BioAssay
